Measured values drawn from ChEMBL document CHEMBL1926568 for this set.

- Test system: Plasmodium falciparum
- assay: Antiplasmodial activity against chloroquine-resistant Plasmodium falciparum K1 after 48 hrs by lactate dehydrogenase assay
- Assay type: functional, organism-based
- condition: K1, 48 h
The entries below come with measured IC50 values attached.
Quick note: give the figure in nM, leave out the unit.

compound | experimental-system | test-result
CC(C)c1c(OCC2CO2)ccc2c1CC[C@H]1C(C)(C)CCC[C@]21C (stereo partly drawn) | Plasmodium falciparum | 14000

Lookup: IC50 / Plasmodium falciparum / CN1CCN(CC(O)COc2ccc3ccccc3c2)CC1 (racemic)
8210

Repeat for the following compound: OC(CNCc1ccccc1)COc1ccc2ccccc2c1 (racemic)
13500

Repeat for the following compound: CC(C)NCC(O)COc1ccc2c(c1C(C)C)CC[C@H]1C(C)(C)CCC[C@]21C (stereo partly drawn)
170

Repeat for the following compound: CC(C)c1c(OCC(O)CNCc2ccccc2)ccc2c1CC[C@H]1C(C)(C)CCC[C@]21C (stereo partly drawn)
650

Repeat for the following compound: CC(C)c1c(OCC(O)CN2CCN(c3ccccc3)CC2)ccc2c1CC[C@H]1C(C)(C)CCC[C@]21C (stereo partly drawn)
1810

Repeat for the following compound: CC(C)c1c(OCC(O)CN2CCN(c3ccnc4cc(Cl)ccc34)CC2)ccc2c1CC[C@H]1C(C)(C)CCC[C@]21C (single isomer, unassigned)
930

Repeat for the following compound: CC(C)c1c(OCC(O)CN2CCCCC2)ccc2c1CC[C@H]1C(C)(C)CCC[C@]21C (stereo partly drawn)
750

----------
- assay: Selectivity index, ratio of IC50 for CHO cells to IC50 for chloroquine-resistant Plasmodium falciparum K1
- Type: toxicity, cell-based
- condition: hamster, CHO cells (cytotoxicity) versus Plasmodium falciparum K1; read-out: Ratio IC50
The entries below come with measured selectivity ratio values attached.
Enter a number only.

Please review the following examples before continuing.
compound | selectivity ratio
CCN(CC)CC(O)COc1ccc2c(c1C(C)C)CC[C@H]1C(C)(C)CCC[C@]21C (stereo not given in full) | 12.2
CC(C)NCC(O)COc1ccc2c(c1C(C)C)CC[C@H]1C(C)(C)CCC[C@]21C (stereo not given in full) | 8.7
CC(C)c1c(OCC(O)CN2CCOCC2)ccc2c1CC[C@H]1C(C)(C)CCC[C@]21C (mixture of isomers) | 10

What value of selectivity ratio has been reported for the following compound? CC(C)c1c(OCC(O)CN2CCCCC2)ccc2c1CC[C@H]1C(C)(C)CCC[C@]21C (stereo not given in full)
4

Repeat for the following compound: CC(C)c1c(OCC(O)CN2CCN(c3ccccc3Cl)CC2)ccc2c1CC[C@H]1C(C)(C)CCC[C@]21C (single isomer, unassigned)
207

----------
The entries below come with measured selectivity ratio values attached.
- assay: Selectivity index, ratio of IC50 for CHO cells to IC50 for chloroquine-resistant Plasmodium falciparum K1
- Format: toxicity, cell-based
- condition: hamster, CHO cells (cytotoxicity) versus Plasmodium falciparum K1; read-out: Ratio IC50

Please review the following examples before continuing.
compound | selectivity ratio
CCOc1ccccc1N1CCN(CC(O)COc2ccc3c(c2C(C)C)CC[C@H]2C(C)(C)CCC[C@]32C)CC1 (stereo not given in full) | 181
CN1CCN(CC(O)COc2ccc3ccccc3c2)CC1 (racemic) | 18.1
OC(CNCc1ccccc1)COc1ccc2ccccc2c1 (racemic) | 9.1
CC(C)c1c(OCC(O)CN2CCN(c3ccnc4cc(Cl)ccc34)CC2)ccc2c1CC[C@H]1C(C)(C)CCC[C@]21C (single isomer, unassigned) | > 100

Consider now this further compound.
What value of selectivity ratio has been reported for the following compound? CC(C)c1c(OCC(O)CN2CCN(C)CC2)ccc2c1CC[C@H]1C(C)(C)CCC[C@]21C (stereo not given in full)
2.7
